system: human IgG; assay: 2D gel immunoblot of TG extract with serum pool from 8 TG-allergic donors, IgG reactivity; type: binding; conditions: reactivity of the parent antigen (TG protein) from which the peptide is predicted; G+/G−
measured_parameter: Antibody reactivity IgE/IgG: IgG

> print(dat)
                                  substance  result
1  5621 (KIASFLDPDGWKVVL; Phleum pratense) [Peptide 5621]      G−
2  6119 (KVSKVLNTYIFLLYL; Phleum pratense) [Peptide 6119]      G−
3  4269 (GVIAGLNVLRIINEP; Phleum pratense) [Peptide 4269]      G+
4  411 (SSTRGWCSRRRAGRG; Phleum pratense) [Peptide 411]      G+
5  64111 (KNPLKFDNTYFTELL; Phleum pratense) [Peptide 64111]      G−
6  48269 (YAVGQKIKAYLEAES; Phleum pratense) [Peptide 48269]      G+
7  455 (KRPPRCCQDLVVLPL; Phleum pratense) [Peptide 455]      G+

---

system: human IgE; assay: 2D gel immunoblot of TG extract with serum pool from 8 TG-allergic donors, IgE reactivity; assay type: binding; settings: IgE reactivity of the parent TG antigen
measured_parameter: Antibody reactvity IgE/IgG (IgE part)

> print(dat)
                                  substance  subject.of.test  result
1  83 (TIVASGIENMKIFTR; Phleum pratense) [Peptide 83]        human IgE      E+
2  141 (LLGYLLWVVAIRRPR; Phleum pratense) [Peptide 141]        human IgE      E+
3  350 (LKDGSTYSFRFSFIV; Phleum pratense) [Peptide 350]        human IgE      E+
4  527 (TVSDEYLAAVAKARR; Phleum pratense) [Peptide 527]        human IgE      E+

---

Listed here: items and their measured Total response IFNg SFC.
system: PBMCs from TG allergic donors; test: IFNg ELISPOT of TG extract-expanded PBMCs from TG allergic donors (single peptides); type: cell-based, human; conditions: TG allergic patients
measured_parameter: Total response IFNg SFC (SFC)

> print(dat)
                                  substance                subject.of.test       measured.parameter  recorded.number
1  64111 (KNPLKFDNTYFTELL; Phleum pratense) [Peptide 64111]  PBMCs from TG allergic donors  Total response IFNg SFC               47
2  4269 (GVIAGLNVLRIINEP; Phleum pratense) [Peptide 4269]  PBMCs from TG allergic donors  Total response IFNg SFC               33
3  48269 (YAVGQKIKAYLEAES; Phleum pratense) [Peptide 48269]  PBMCs from TG allergic donors  Total response IFNg SFC              297
4  5621 (KIASFLDPDGWKVVL; Phleum pratense) [Peptide 5621]  PBMCs from TG allergic donors  Total response IFNg SFC              343

---

tested on: human IgE; assay: 2D gel immunoblot of TG extract with serum pool from 8 TG-allergic donors, IgE reactivity; format: binding; settings: IgE reactivity (E+/E−) of the source antigen of the peptide
measured_parameter: Antibody reactivity IgE/IgG: IgE

> print(dat)
                                  substance  result
1  26138 (KVINDRFGIVEGLMT; Phleum pratense) [Peptide 26138]      E+
2  375 (EEAASTLPGLSSSTL; Phleum pratense) [Peptide 375]      E−
3  30285 (VFNDDIQGTASVVLA; Phleum pratense) [Peptide 30285]      E+
4  252 (SAPALRILRSFPSHS; Phleum pratense) [Peptide 252]      E+

Measured values drawn from patent US10428124B2 for this set.
